Sourced from patent US10093670B2

- measuredOn: human AMPK α1β1γ1 enzyme (Homo sapiens, UniProt Q13131+Q9Y478)
- Construct: purchased Carna Biosciences, Inc
- Sequence (Q13131 10-559 limits assumed): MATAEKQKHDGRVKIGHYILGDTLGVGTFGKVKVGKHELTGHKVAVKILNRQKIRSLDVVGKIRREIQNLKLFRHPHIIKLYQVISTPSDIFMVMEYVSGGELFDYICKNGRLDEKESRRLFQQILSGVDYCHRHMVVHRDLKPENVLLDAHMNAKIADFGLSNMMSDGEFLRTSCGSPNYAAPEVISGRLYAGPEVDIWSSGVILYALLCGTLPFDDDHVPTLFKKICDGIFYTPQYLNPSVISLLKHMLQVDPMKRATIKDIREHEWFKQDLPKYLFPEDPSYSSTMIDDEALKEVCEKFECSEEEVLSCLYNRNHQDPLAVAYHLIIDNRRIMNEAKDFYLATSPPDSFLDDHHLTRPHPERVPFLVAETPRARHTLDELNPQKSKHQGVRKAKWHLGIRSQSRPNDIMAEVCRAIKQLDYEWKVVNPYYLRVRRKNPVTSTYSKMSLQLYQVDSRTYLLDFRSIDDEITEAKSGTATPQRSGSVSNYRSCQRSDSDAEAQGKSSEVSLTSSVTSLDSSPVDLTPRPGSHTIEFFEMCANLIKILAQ
- Sequence (Q9Y478 whole entry): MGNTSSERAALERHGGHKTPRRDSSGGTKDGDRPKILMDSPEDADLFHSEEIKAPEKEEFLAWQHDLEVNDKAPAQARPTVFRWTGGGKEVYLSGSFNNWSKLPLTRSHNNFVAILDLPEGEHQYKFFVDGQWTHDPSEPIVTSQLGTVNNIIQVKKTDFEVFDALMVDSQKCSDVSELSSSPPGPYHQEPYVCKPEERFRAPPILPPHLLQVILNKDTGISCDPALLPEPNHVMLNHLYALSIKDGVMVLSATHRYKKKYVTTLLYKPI
- Sequence (P54619 whole entry partner): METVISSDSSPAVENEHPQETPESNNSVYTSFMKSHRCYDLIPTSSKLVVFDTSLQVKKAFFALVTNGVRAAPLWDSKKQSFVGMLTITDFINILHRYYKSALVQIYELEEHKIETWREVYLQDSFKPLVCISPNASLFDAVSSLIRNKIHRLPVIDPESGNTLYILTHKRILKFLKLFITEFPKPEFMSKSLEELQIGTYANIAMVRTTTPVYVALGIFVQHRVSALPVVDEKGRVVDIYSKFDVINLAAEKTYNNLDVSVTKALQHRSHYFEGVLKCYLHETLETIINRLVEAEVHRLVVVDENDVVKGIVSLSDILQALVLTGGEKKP
- measurementNotes: Evaluation of AMPK activator, Test Example 1 (mobility-shift kinase assay, FL-Peptide 7)
- Format: biochemical
- conditionParameters: human AMPK α1β1γ1, relative to control (100%); read-out: Emax (maximum rate of increase in activity within the measurement range)
readoutType: Emax (%)
The answer is to be given in %; state only the numeric part.

Please review the entries below; each comes with its answer.
O=C(O)C[C@H]1CC[C@H](Oc2nc3nc(-c4ccc(C5=CCOCC5)cc4)c(Cl)cc3[nH]2)CC1 ... 255
O=C(O)CN1CCC(Oc2nc3nc(-c4ccc(N5CCOCC5)cc4)c(Cl)cc3[nH]2)CC1.O=CO ... 238
O=C(O)C1([C@]2(O)CC[C@@H](Oc3nc4nc(-c5ccc(N6CCOCC6)cc5)c(Cl)cc4[nH]3)CC2)CCC1 ... 243
NC(=O)[C@H]1CC[C@H](Oc2nc3nc(-c4ccc(N5CCOCC5)cc4)c(Cl)cc3[nH]2)CC1 ... 236

stdin: Find the recorded Emax belonging to CC(Oc1nc2nc(-c3ccc(N4CCCC4)cc3)c(Cl)cc2[nH]1)c1noc(=O)[nH]1 (centres unmarked) and report it.
stdout: 215

stdin: For the molecule CCC(Oc1nc2nc(-c3ccc(N4CCCC4)cc3)c(Cl)cc2[nH]1)c1cc(O)no1 (centres unmarked) , what Emax is on record?
stdout: 259

stdin: I'd like to know its Emax. The molecule in question is CC(=O)N1CC=C(c2ccc(-c3nc4nc(O[C@H]5CC[C@H](C(=O)O)CC5)[nH]c4cc3Cl)cc2)CC1
stdout: 181

stdin: // lookup Emax for CC(C)(C(=O)O)[C@]1(O)CC[C@@H](Oc2nc3nc(-c4ccc(N5CCCC5)cc4)c(Cl)cc3[nH]2)CC1
stdout: 345

---

- measuredOn: human AMPK α1β1γ1 enzyme (Homo sapiens, UniProt Q13131+Q9Y478)
- Construct: purchased Carna Biosciences, Inc
- measurementNotes: Evaluation of AMPK activator, Test Example 1 (mobility-shift kinase assay, FL-Peptide 7)
- Type: biochemical
- conditionParameters: human AMPK α1β1γ1, 25° C., 2 hours, 0.2 mM ATP final
- Method: The obtained liquid was left to stand for 10 minutes. The obtained liquid was allowed to react at 25° C. for 2 hours, and 10 μl of 20 mM EDTA was then added thereto to stop the reaction. To detect phosphorylated fluorescent substrates, the reaction liquid was applied to a measuring device, LabChip EZ Reader II manufactured by Caliper Life Science, Inc., for detecting fluorescence by using differences in mobility due to differences in charge. […]
The following molecules are shown together with reported EC150 (compound concentration showing 150% relative to the control (100%)) values.

For orientation, consider the following solved cases.
O=C(O)CN1CCC(Oc2nc3nc(-c4ccc(N5CCOCC5)cc4)c(Cl)cc3[nH]2)CC1.O=CO ... 2100 nM
CS(=O)(=O)N1CCC(Oc2nc3nc(-c4ccc(N5CCOCC5)cc4)c(Cl)cc3[nH]2)CC1 ... 200 nM
CC(Oc1nc2nc(-c3ccc(N4CCCC4)cc3)c(Cl)cc2[nH]1)c1cc(O)no1 (centres unmarked) ... 25 nM
Oc1cc(COc2nc3nc(-c4ccc(N5CCOCC5)cc4)c(Cl)cc3[nH]2)on1 ... 320 nM

stdin: Which value of EC150 (compound concentration showing 150% relative to the control (100%)) has been reported for CC(=O)NC1CCN(c2ccc(-c3nc4nc(OC5CCC(C(C)(C)C(=O)O)CC5)[nH]c4cc3Cl)cc2)CC1 (centres unmarked) in the records?
stdout: 24 nM

---

- measuredOn: human AMPK α1β1γ1 enzyme (Homo sapiens, UniProt Q13131+Q9Y478)
- Construct: purchased Carna Biosciences, Inc
- measurementNotes: Evaluation of AMPK activator, Test Example 1 (mobility-shift kinase assay, FL-Peptide 7)
- Type: biochemical
- conditionParameters: human AMPK α1β1γ1, 25° C., 2 hours, 0.2 mM ATP final
readoutType: EC150 (compound concentration showing 150% relative to the control (100%)) (nM)
Response body: numeric value in nM, unit text excluded.

CC(Oc1nc2nc(-c3ccc(N4CCOCC4)cc3)c(Cl)cc2[nH]1)C(C)(C)C(=O)O (centres unmarked) [Compound I-2-121] ... 160

stdin: GET /values?readout=EC150 (compound concentration showing 150% relative to the control (100%))&item= O=C(O)C1(COc2nc3nc(-c4ccc(N5CCOCC5)cc4)c(Cl)cc3[nH]2)CC1 [Compound I-2-116]
stdout: 130

stdin: Look at this compound and give its reported EC150 (compound concentration showing 150% relative to the control (100%)). O=C(O)C[C@H]1CC[C@H](Oc2nc3nc(-c4ccc(C5=CCOCC5)cc4)c(Cl)cc3[nH]2)CC1 [Compound I-2-85]
stdout: 18

stdin: Entry CC(C)(C(=O)O)[C@]1(O)CC[C@@H](Oc2nc3nc(-c4ccc(N5CCCCC5)cc4)c(Cl)cc3[nH]2)CC1 [Compound I-3-51] : reported EC150 (compound concentration showing 150% relative to the control (100%)) = ?
stdout: 4.5

stdin: Name the recorded EC150 (compound concentration showing 150% relative to the control (100%)) for CC(=O)N1CC=C(c2ccc(-c3nc4nc(O[C@H]5CC[C@H](C(=O)O)CC5)[nH]c4cc3Cl)cc2)CC1 [Compound I-2-59] .
stdout: 2300

stdin: So what does the record say about EC150 (compound concentration showing 150% relative to the control (100%)) for CN1CCC(Oc2nc3nc(-c4ccc(N5CCOCC5)cc4)c(Cl)cc3[nH]2)CC1 [Compound I-1-25] ?
stdout: 3100

stdin: GET /values?readout=EC150 (compound concentration showing 150% relative to the control (100%))&item= O=C(O)c1ccc(-c2ccc(-c3nc4nc(O[C@H]5C[C@@H](C(=O)N6CC(O)C6)C5)[nH]c4cc3Cl)cc2)cc1 [Compound I-3-115]
stdout: 23

stdin: Fill blank: measured EC150 (compound concentration showing 150% relative to the control (100%)) of the compound CC(C)(COc1nc2nc(-c3ccc(N4CCOCC4)cc3)c(Cl)cc2[nH]1)C(=O)O [Compound I-2-109] is ____.
stdout: 250

stdin: Could you tell me which EC150 (compound concentration showing 150% relative to the control (100%)) is on file for O=C(O)COc1nc2nc(-c3ccc(N4CCOCC4)cc3)c(Cl)cc2[nH]1 [Compound I-1-10] ?
stdout: 390

stdin: Return reported EC150 (compound concentration showing 150% relative to the control (100%)); argument: CC(=O)NC1CC=C(c2ccc(-c3nc4nc(O[C@H]5CC[C@H](C(C)(C)CO)CC5)[nH]c4cc3Cl)cc2)CC1 (some centres unmarked) [Compound I-3-86]
stdout: 23

stdin: Given the compound O=C(O)C[C@H]1CC[C@H](Oc2nc3nc(-c4ccc(N5CCOCC5)cc4)c(Cl)cc3[nH]2)CC1 [Compound I-2-40] , what is its reported EC150 (compound concentration showing 150% relative to the control (100%))?
stdout: 51
